The reported measurements were obtained from patent US9469650B2.

Listed next: entries and their corresponding Percent Growth.
Tested on: HS 578T
Assay: panel of 60 human tumor cell lines, growth inhibition (Breast Cancer)
Conditions: HS 578T; Log10 Concentration −5.0

1. C=C1C(=O)O[C@H]2[C@H]1CC/C(COC(=O)CCC(=O)N1CCC(C)CC1)=C\CC[C@@]1(C)O[C@@H]21
70%
2. C=C1C(=O)O[C@H]2[C@H]1CC/C(COC(=O)NCCO)=C\CC[C@@]1(C)O[C@@H]21
82%
3. C=C1C(=O)O[C@H]2[C@H]1CC/C(COC(=O)N1CCC(F)(F)CC1)=C\CC[C@@]1(C)O[C@@H]21
59%

Now let's try a different one.
Which measured Percent Growth value corresponds to C=C1C(=O)O[C@H]2[C@H]1CC/C(COC(=O)NCCc1ccccn1)=C\CC[C@@]1(C)O[C@@H]21 ?
28%

* * *

Test system: RPMI-8226
Assay: panel of 60 human tumor cell lines, growth inhibition (Leukemia)
Conditions: RPMI-8226; Log10 Concentration −5.0
OBSERVATION_TYPE: Percent Growth (%)
# output: bare number, implied unit %

Here is how some molecules turned out for Percent Growth.
1. C=C1C(=O)O[C@H]2[C@H]1CC/C(COC(=O)NCCc1ccccn1)=C\CC[C@@]1(C)O[C@@H]21
45
2. C=C1C(=O)O[C@H]2[C@H]1CC/C(COC(=S)n1ccnc1)=C\CC[C@@]1(C)O[C@@H]21
53

Which measured Percent Growth value corresponds to C=C1C(=O)O[C@H]2[C@H]1CC/C(COC(=O)NC)=C\CC[C@@]1(C)O[C@@H]21 ?
7

Now give it for C=C1C(=O)O[C@H]2[C@H]1CC/C(COC(=O)N1CCC(F)(F)CC1)=C\CC[C@@]1(C)O[C@@H]21 too.
−25

* * *

Listed next: entries and their corresponding GI50.
Tested on: M14
Assay: panel of 60 human tumor cell lines, growth inhibition (Melanoma)
Conditions: Homo sapiens, M14

1. C=C1C(=O)O[C@H]2[C@H]1CC/C(COC(=O)NCCCCCCO)=C\CC[C@@]1(C)O[C@@H]21
4.5 µM
2. C=C1C(=O)O[C@H]2[C@H]1CC/C(COC(=O)NCCc1ccccn1)=C\CC[C@@]1(C)O[C@@H]21
5.58 µM
3. C=C1C(=O)O[C@H]2[C@H]1CC/C(COC(=O)OC)=C\CC[C@@]1(C)O[C@@H]21
2.91 µM

Which measured GI50 value corresponds to C=C1C(=O)O[C@H]2[C@H]1CC/C(COC(=O)OCCN(C)C)=C\CC[C@@]1(C)O[C@@H]21 ?
3.71 µM

* * *

System: DU-145
Assay: panel of 60 human tumor cell lines, growth inhibition (Prostate Cancer)
Details: Homo sapiens, DU-145
Please note: GI50 exactly at 3 µM is not satisfied. Only values below 3 µM get satisfied.

1. C=C1C(=O)O[C@H]2[C@H]1CC/C(COC(=O)OCCCN1CCCCC1)=C\CC[C@@]1(C)O[C@@H]21 [JVM 2-26]
not satisfied
2. C=C1C(=O)O[C@H]2[C@H]1CC/C(COC(=O)CCC(=O)NCc1ccc(Cl)nc1)=C\CC[C@@]1(C)O[C@@H]21 [JVM 96]
not satisfied
3. C=C1C(=O)O[C@H]2[C@H]1CC/C(COC(=O)N1CCC(F)(F)CC1)=C\CC[C@@]1(C)O[C@@H]21 [6a]
satisfied
4. C=C1C(=O)O[C@H]2[C@H]1CC/C(COC(=O)OCCN(C)C)=C\CC[C@@]1(C)O[C@@H]21 [JVM 2-35]
not satisfied

From here, focus on the item given below.
Item C=C1C(=O)O[C@H]2[C@H]1CC/C(COC(=O)OC)=C\CC[C@@]1(C)O[C@@H]21 [JVM 2-40] : GI50 beneath 3 µM, strictly?
not satisfied
